Biological target: T1, human GIP receptor (human, UniProt P48546 22-466)
T1 sequence (looked up): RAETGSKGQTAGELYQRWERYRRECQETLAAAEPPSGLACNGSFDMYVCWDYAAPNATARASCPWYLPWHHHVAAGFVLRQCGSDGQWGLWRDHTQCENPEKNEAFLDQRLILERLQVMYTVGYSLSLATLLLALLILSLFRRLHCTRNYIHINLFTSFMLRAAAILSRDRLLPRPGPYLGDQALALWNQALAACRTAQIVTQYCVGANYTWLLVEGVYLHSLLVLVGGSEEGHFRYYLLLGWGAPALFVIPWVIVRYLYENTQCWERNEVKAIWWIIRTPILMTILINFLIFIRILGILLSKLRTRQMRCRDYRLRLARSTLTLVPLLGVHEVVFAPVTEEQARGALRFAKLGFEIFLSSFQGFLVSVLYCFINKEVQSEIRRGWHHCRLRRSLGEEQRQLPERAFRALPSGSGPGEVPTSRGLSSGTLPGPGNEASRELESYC
Test: cell-based or functional assay
Numbered stars: 1 amine (or outer) side, 2 acyl side, 3 side chain; on linkers, the order of the positions; unused ones are H or OH. Square brackets hold non-standard residues; d marks the D form. Side chains are listed from the residue outwards. * marks the point of attachment. γGlu = O=C(O)[C@H](CCC(=O)[*:2])N[*:1]; Stearoyl = CCCCCCCCCCCCCCCCCC(=O)*; AEEA = NCCOCCOCC(=O)O; Aib = CC(C)(N)C(=O)O
hey, just use 1 if measured EC50 hGIP-R (cAMP formation) is less than 20 pM, otherwise -1

binder: H-H[Aib]HGTFTSDLSKQK([AEEA-AEEA-γGlu-Stearoyl])EEEAVRLFIEWLKAGGPSSGAPPPS-NH2 [SEQ ID NO: 28]
labelValue: 1

Read the next record carefully.
Is EC50 hGIP-R (cAMP formation) of HXHGTFTSDLSKQKDEEAVRLFIEWLKAGGPSSGAPPPS (Aib at position 2; Lys 14 side-chain NH2 acylated with γE-x70 = (S)-4-Carboxy-4-octadecanoylamino-butyryl-; C-terminal amide (NH2)) [SEQ ID NO: 8] strictly below 20 pM?
-1
